# test_target: Bromodomain-containing protein 4 [58-164] (Homo sapiens)
# Construct: 58-164
# test: Determination of the value of binding affinity constant (KO between the compound and BRD4 BD1 protein
measurement_name: Ki (nM)

- molecule: "Cc1nnn2c1-c1ccc(-c3cnn(C)c3)cc1C(Nc1cccc(CCO)c1)CC2 (stereo unspecified)"
  measurement_name: "Ki"
  result_units: "nM"
  quantitative_result: 92.2
- molecule: "Cc1nnn2c1-c1ccc(C3=CCOCC3)cc1C(Nc1cccc(Cl)c1)CC2 (stereo unspecified)"
  measurement_name: "Ki"
  result_units: "nM"
  quantitative_result: 39.1
- molecule: "CCCCN1CC=C(c2ccc3c(c2)C(Nc2cccc(Cl)c2)CCn2nnc(C)c2-3)CC1 (stereo unspecified)"
  measurement_name: "Ki"
  result_units: "nM"
  quantitative_result: 451
- molecule: "COC(=O)Cc1ccc(NC2CCn3nnc(C)c3-c3ccc(-c4cnn(C)c4)cc32)cc1 (stereo unspecified)"
  measurement_name: "Ki"
  result_units: "nM"
  quantitative_result: 44.8
- molecule: "COC(=O)Cc1ccccc1NC1CCn2nncc2-c2ccc(-c3cnn(C)c3)cc21 (stereo unspecified)"
  measurement_name: "Ki"
  result_units: "nM"
  quantitative_result: 43.5
- molecule: "Cc1nnn2c1-c1ccc(C3=CCNCC3)cc1C(Nc1c(F)cccc1Cl)CC2 (stereo unspecified)"
  measurement_name: "Ki"
  result_units: "nM"
  quantitative_result: 2980
